Cited source: patent US10463618B2

PROTOCOL DESCRIPTION: Transcellular permeation assay (Caco-2 transwell)
Format: in vitro ADME
DETAILS: human, Caco-2, 24 hours, read-out: Papp apical to basolateral
QUANTITY NAME: Papp A→B at 24 h, 10 μM (×10⁻⁶ cm/s)
Note: unit ×10⁻⁶ cm/s is implicit; provide only the numeric part.

Give the reported value of Papp A→B at 24 h, 10 μM for this record: O=C1Nc2ccc(Cl)cc2[C@@](C#CC2CC2)(C(F)(F)F)O1
0.7

* * *

PROTOCOL DESCRIPTION: Transcellular permeation assay (Caco-2 transwell)
Format: in vitro ADME
DETAILS: human, Caco-2, 1 hour, read-out: Papp basolateral to apical
QUANTITY NAME: Papp B→A at 1 h, 10 μM (×10⁻⁶ cm/s)
Note: unit ×10⁻⁶ cm/s is implicit; provide only the numeric part.

Give the reported value of Papp B→A at 1 h, 10 μM for this record: Cc1cccc(C)c1OCC(=O)N[C@@H](Cc1ccccc1)[C@@H](O)C[C@H](Cc1ccccc1)NC(=O)[C@H](C(C)C)N1CCCNC1=O [Lopinavir]
9.3

* * *

PROTOCOL DESCRIPTION: Transcellular permeation assay (Caco-2 transwell)
Type: in vitro ADME
DETAILS: human, Caco-2, 1 hour, read-out: Papp apical to basolateral
QUANTITY NAME: Papp A→B at 1 h, 10 μM (×10⁻⁶ cm/s)
Note: unit ×10⁻⁶ cm/s is implicit; provide only the numeric part.

Give the reported value of Papp A→B at 1 h, 10 μM for this record: Cc1cccc(C)c1OCC(=O)N[C@@H](Cc1ccccc1)[C@@H](O)C[C@H](Cc1ccccc1)NC(=O)[C@H](C(C)C)N1CCCNC1=O
8.4

* * *

PROTOCOL DESCRIPTION: Transcellular permeation assay (Caco-2 transwell)
Assay type: in vitro ADME
DETAILS: human, Caco-2, 2 hours, read-out: Papp apical to basolateral
QUANTITY NAME: Papp A→B at 2 h, 10 μM (×10⁻⁶ cm/s)
Note: unit ×10⁻⁶ cm/s is implicit; provide only the numeric part.

Give the reported value of Papp A→B at 2 h, 10 μM for this record: Cc1cccc(C)c1OCC(=O)N[C@@H](Cc1ccccc1)[C@@H](O)C[C@H](Cc1ccccc1)NC(=O)[C@H](C(C)C)N1CCCNC1=O
2.7

# evaluate next
Give the reported value of Papp A→B at 2 h, 10 μM for this record: O=C1Nc2ccc(Cl)cc2[C@@](C#CC2CC2)(C(F)(F)F)O1
8.2
